Molecular target: BAF3 FL KIT EX11DEL/V654A (Homo sapiens, UniProt P10721, V654A, cells depend on it, form not given)
Construct: BAF3 FL KIT EX11DEL/V654A
Sequence (P10721 with tags, fused parts or gaps DEL557-558/V654A, form open): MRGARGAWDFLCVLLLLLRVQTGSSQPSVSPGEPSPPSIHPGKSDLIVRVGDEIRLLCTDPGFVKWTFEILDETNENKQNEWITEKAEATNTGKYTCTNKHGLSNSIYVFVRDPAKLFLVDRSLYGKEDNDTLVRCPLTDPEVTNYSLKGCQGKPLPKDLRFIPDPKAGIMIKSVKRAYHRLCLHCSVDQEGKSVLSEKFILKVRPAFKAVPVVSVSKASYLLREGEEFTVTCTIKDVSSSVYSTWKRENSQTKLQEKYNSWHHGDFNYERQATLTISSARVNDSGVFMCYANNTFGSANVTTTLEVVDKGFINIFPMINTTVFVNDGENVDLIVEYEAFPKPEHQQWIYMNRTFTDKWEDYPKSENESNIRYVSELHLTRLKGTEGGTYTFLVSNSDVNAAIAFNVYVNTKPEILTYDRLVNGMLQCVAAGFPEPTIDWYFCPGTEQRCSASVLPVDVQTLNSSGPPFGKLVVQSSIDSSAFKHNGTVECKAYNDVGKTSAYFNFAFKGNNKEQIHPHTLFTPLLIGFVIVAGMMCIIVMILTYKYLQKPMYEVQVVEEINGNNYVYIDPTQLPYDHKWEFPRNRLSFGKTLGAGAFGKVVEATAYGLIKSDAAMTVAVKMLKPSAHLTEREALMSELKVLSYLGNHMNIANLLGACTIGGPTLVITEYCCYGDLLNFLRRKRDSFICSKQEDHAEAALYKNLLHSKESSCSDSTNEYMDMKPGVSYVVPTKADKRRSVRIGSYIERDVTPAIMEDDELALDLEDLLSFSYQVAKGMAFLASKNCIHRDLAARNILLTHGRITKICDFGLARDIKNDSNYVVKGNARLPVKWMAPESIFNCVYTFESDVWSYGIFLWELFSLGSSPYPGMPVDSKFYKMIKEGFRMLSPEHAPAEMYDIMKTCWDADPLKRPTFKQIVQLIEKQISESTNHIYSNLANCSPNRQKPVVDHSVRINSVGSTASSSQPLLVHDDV
Experiment: c-Kit assay: Ba/F3 KIT mutant cell viability (Cell Titer-Glo, 72 hours)
Assay type: cell-based
Conditions: viability after 72 hours

>  <Compound>
CNC(=O)Nc1ncc(C#Cc2cc(C(=O)Nc3cc(C(F)(F)F)ccn3)ccc2F)s1 [I-45]

>  <GI50>
10 to 50 nM

$$$$
>  <Compound>
Cc1ccc(C(=O)Nc2cc(C(F)(F)F)ccn2)cc1C#Cc1cnc(NC(=O)N(C)C)s1 [I-1]

>  <GI50>
< 10 nM

$$$$
>  <Compound>
COCCN(C)C(=O)Nc1ncc(C#Cc2cc(C(=O)Nc3ccc(CN4CCCC4)c(C(F)(F)F)c3)ccc2C)s1 [I-46]

>  <GI50>
50 to 100 nM

$$$$
>  <Compound>
Cc1ccc(C(=O)Nc2cc(C(F)(F)F)ccn2)cc1C#Cc1cnc(NC(=O)N(C)C2CCCN(C)C2)s1 (centres unmarked) [I-32]

>  <GI50>
10 to 50 nM

$$$$
>  <Compound>
Cc1ccc(NC(=O)c2cc(C(F)(F)F)ccn2)cc1C#Cc1cnc(NC(=O)N(C)CCO)s1 [I-60]

>  <GI50>
10 to 50 nM

$$$$
>  <Compound>
Cc1ccc(C(=O)Nc2cc(C(F)(F)F)ccn2)cc1C#Cc1cnc(NC(=O)NCCN2CCC(O)C2)s1 (centres unmarked) [I-18]

>  <GI50>
10 to 50 nM

$$$$
>  <Compound>
Cc1ccc(C(=O)Nc2cc(C(F)(F)F)ccn2)cc1C#Cc1cnc(NC(=O)N2CCOCC2)s1 [I-35]

>  <GI50>
10 to 50 nM

$$$$
>  <Compound>
Cc1ccc(C(=O)Nc2cc(C(F)(F)F)ccn2)cc1C#Cc1cnc(NC(=O)N(C)CCO)s1 [I-10]

>  <GI50>
< 10 nM

$$$$
